TARGET_OF_ASSAY: T1, monkey GPC3 on HEK293T-monkey GPC3 cells (monkey)
T1 construct: whole, on cells
PROTOCOL_TEXT: FACS on HEK293T-monkey GPC3 cells
The entries below are paired with their reported EC50.
Numeric only. Scale: nM

1) hAb003LH1L1b (antibody, human IgG1, V domains shown, Humanized F2.154.1) VH: EVQLVQSGAEVKKPGSSVKVSCKASGYTFSDYEMHWVRQAPGQGLEWMGTIDPETGNTAYTQKFMDRVTITADKSTSTAYMELSSLRSEDTAVYYCTRGYSFTYWGQGTLVTVSS VL: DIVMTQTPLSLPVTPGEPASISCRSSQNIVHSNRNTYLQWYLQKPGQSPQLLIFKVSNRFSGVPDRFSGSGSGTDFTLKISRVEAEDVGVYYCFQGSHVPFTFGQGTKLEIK | 1.46
2) hAb005LH1L1b (antibody, human IgG1, V domains shown, Humanized F3.54.12) VH: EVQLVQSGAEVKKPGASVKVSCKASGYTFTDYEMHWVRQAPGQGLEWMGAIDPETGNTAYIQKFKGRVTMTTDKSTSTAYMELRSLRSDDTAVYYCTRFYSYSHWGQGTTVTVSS VL: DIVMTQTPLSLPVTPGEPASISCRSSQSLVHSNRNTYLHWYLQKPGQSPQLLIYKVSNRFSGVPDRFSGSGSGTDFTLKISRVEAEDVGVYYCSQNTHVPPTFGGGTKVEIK | 2.62
3) hAb003LH1L1 (antibody, human IgG1, V domains shown, Humanized F2.154.1) VH: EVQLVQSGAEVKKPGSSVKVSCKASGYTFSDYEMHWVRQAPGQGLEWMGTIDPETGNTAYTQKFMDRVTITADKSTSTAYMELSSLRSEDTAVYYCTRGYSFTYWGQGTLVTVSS VL: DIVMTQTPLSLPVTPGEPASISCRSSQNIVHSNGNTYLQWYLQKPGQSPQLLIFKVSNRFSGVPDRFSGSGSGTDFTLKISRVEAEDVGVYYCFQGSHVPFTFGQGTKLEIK | 1.56
4) hAb005LH2L1b (antibody, human IgG1, V domains shown, Humanized F3.54.12) VH: EVQLVQSGAEVKKPGASVKVSCKASGYTFTDYEMHWVRQAPGQGLEWMGAIDPETGNTAYIQKFKGRVTLTTDKSTSTAYMELRSLRSDDTAVYYCTRFYSYSHWGQGTTVTVSS VL: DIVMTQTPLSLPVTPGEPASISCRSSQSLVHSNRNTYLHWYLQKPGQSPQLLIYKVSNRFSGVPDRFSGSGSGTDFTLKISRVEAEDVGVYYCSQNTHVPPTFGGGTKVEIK | 2.42
5) hAb006LH2L1b (antibody, human IgG1, V domains shown, Humanized F3.38.7) VH: EVQLVQSGAEVKKPGSSVKVSCKASGYTFTDYEIHWVRQAPGQGLEWMGAIDPKTGNTAYNQKFMGRVTITADKSTSTAYMELSSLRSEDTAVYYCTRYFSFAYWGQGTLVTVSS VL: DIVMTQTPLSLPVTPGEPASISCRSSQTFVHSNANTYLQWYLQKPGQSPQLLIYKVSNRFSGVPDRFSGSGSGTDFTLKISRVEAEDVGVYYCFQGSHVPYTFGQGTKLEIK | 1.83
6) hAb007LH1L1c (antibody, human IgG1, V domains shown, Humanized F3.81.19) VH: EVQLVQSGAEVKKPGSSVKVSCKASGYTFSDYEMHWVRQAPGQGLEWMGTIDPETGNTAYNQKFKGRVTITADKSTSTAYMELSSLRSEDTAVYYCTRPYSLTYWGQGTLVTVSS VL: DIVMTQTPLSLPVTPGEPASISCRSSQSFVHSNADTYLQWYLQKPGQSPQLLIYKVSNRFSGVPDRFSGSGSGTDFTLKISRVEAEDVGVYYCFQGSHVPYTFGQGTKLEIK | 8.8
7) hAb001H1aL1b (antibody, human IgG1, V domains shown, Humanized F2.169.2) VH: EVQLVESGGGLVQPGGSLRLSCAASGFSFNTNAMNWVRQAPGKGLEWVGRIRSKSNNYATYYADSVKGRFTISRDDSKNSLYLQMNSLKTEDTAVYYCVRDGYYVLFAYWGQGTLVTVSS VL: DIVMTQTPLSLPVTPGEPASISCRFSQSIVNSNANTYLEWFLQKPGQSPQLLIYKVSNRFSGVPDRFSGSGSGTDFTLKISRVEAEDVGVYYCFQGSHVPFTFGQGTKLEIK | 0.96
8) hAb001H1aL1 (antibody, human IgG1, V domains shown, Humanized F2.169.2) VH: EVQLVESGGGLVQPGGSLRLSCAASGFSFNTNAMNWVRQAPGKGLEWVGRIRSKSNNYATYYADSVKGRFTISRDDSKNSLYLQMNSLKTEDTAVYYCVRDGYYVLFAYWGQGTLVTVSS VL: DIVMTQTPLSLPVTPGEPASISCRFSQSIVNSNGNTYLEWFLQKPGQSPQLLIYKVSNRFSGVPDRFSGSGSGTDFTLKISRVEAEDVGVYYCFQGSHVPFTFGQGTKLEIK | 1

Next:
Prompt line: Which EC50 reading was recorded for the binder hAb003LH2L1b (antibody, human IgG1, V domains shown, Humanized F2.154.1) VH: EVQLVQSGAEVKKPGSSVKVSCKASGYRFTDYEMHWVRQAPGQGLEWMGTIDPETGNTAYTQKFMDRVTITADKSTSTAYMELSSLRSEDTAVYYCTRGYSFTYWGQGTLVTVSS VL: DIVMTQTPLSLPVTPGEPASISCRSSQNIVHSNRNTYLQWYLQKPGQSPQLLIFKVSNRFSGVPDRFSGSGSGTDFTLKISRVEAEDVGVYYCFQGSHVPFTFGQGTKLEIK ?
Response line: 0.793

Numbers sourced from patent US20260116991A1.
